Tested on: Saccharomyces cerevisiae
Assay: protein stability index of tFT-peptide fusion (C-terminal peptide) (PSI (0-1 scale)); higher = more stable (slower turnover)
Conditions: genetic background: wild type; temperature: 30 C
Answer no if protein stability index is under 0.7, and yes if it is 0.7 or more.

Consider the following illustrative entries.
GGNSSKKGKKKR [RQC2 C-terminal 12 aa]    yes
YRIIDCVIAQLP [NVJ3 C-terminal 12 aa]    no
LARLKTCVLLIN [YML122C C-terminal 12 aa]    no
KMPLVPTHYYKQ [GCV1 C-terminal 12 aa]    no
ITNFFRVLVRLV [YER067C-A C-terminal 12 aa]    no
GKKLKKIFGRKK [SEG1 C-terminal 12 aa]    no

Continue with the next sequence.
Asked: Can IAIGFGVGITRE [BUD8 C-terminal 12 aa] be said to have protein stability index at or above 0.7?
Given back: yes
